- Test system: J774A.1 (Mouse BALB/c monocyte macrophage cell line) cells
- Method: LPS-induced TNF-α secretion inhibition in J774A.1 cells
- Assay type: cell-based
- Condition set: J774.A1, 1 μM compound, graded compared to taurodeoxycholic acid (positive control), read-out: TNF-α production inhibition grade
Measured quantity: inhibition at 1 µM

Let me check: C[C@H](CCC(=O)NC(C)(C)CS(=O)(=O)O)[C@H]1CC[C@H]2[C@@H]3CC[C@@H]4CC(=O)CC[C@]4(C)[C@H]3CC[C@]12C [NC30013] , system J774A.1 (Mouse BALB/c monocyte macrophage cell line) cells, measured inhibition at 1 µM is 50 to 100%

Let me check: CC[C@H]1[C@@H](O)[C@@H]2[C@H](CC[C@]3(C)[C@@H]([C@H](C)CCC(=O)N4CCC[C@@H](S(=O)(=O)O)C4)CC[C@@H]23)[C@@]2(C)CC[C@@H](O)C[C@@H]12 [NC40010] , system J774A.1 (Mouse BALB/c monocyte macrophage cell line) cells, measured inhibition at 1 µM is 50 to 100%

Let me check: C[C@H](CCC(=O)NCCOS(=O)(=O)O)[C@H]1CC[C@H]2[C@@H]3CC[C@@H]4C[C@H](O)CC[C@]4(C)[C@H]3C[C@H](O)[C@]12C [NC10007] , system J774A.1 (Mouse BALB/c monocyte macrophage cell line) cells, measured inhibition at 1 µM is 50 to 100%

Let me check: CC[C@H]1[C@@H](O)[C@@H]2[C@H](CC[C@]3(C)[C@@H]([C@H](C)CCC(=O)N(CCS(=O)(=O)O)C(C)C)CC[C@@H]23)[C@@]2(C)CC[C@@H](O)C[C@@H]12 [NC40007] , system J774A.1 (Mouse BALB/c monocyte macrophage cell line) cells, measured inhibition at 1 µM is < 20%

Let me check: C[C@H](CCC(=O)N[C@@H](C)CS(=O)(=O)O)[C@H]1CC[C@H]2[C@@H]3[C@H](O)C[C@@H]4C[C@H](O)CC[C@]4(C)[C@H]3C[C@H](O)[C@]12C [NC20028] , system J774A.1 (Mouse BALB/c monocyte macrophage cell line) cells, measured inhibition at 1 µM is < 20%

Let me check: CC[C@H]1[C@@H](O)[C@@H]2[C@H](C[C@H](O)[C@]3(C)[C@@H]([C@H](C)CCC(=O)N4CCC[C@H]4CS(=O)(=O)O)CC[C@@H]23)[C@@]2(C)CC[C@@H](O)C[C@@H]12 [NC50021] , system J774A.1 (Mouse BALB/c monocyte macrophage cell line) cells, measured inhibition at 1 µM is < 20%

Let me check: C[C@H](CCC(=O)Nc1ccc(S(=O)(=O)O)cc1)[C@H]1CC[C@H]2[C@@H]3CC[C@@H]4C[C@H](O)CC[C@]4(C)[C@H]3CC[C@]12C [NC10015] , system J774A.1 (Mouse BALB/c monocyte macrophage cell line) cells, measured inhibition at 1 µM is < 20%

Let me check: C[C@H](CCC(=O)N1CC[C@@H](S(=O)(=O)O)C1)[C@H]1CC[C@H]2[C@@H]3CC[C@@H]4C[C@H](O)CC[C@]4(C)[C@H]3C[C@H](O)[C@]12C [NC10049] , system J774A.1 (Mouse BALB/c monocyte macrophage cell line) cells, measured inhibition at 1 µM is < 20%

Let me check: C[C@H](CCC(=O)NCCCS(=O)(=O)O)[C@H]1CC[C@H]2[C@@H]3CC[C@@H]4C[C@H](O)CC[C@]4(C)[C@H]3C[C@H](O)[C@]12C [NC10002] , system J774A.1 (Mouse BALB/c monocyte macrophage cell line) cells, measured inhibition at 1 µM is > 100%

Let me check: C[C@H](CCC(=O)N(CCS(=O)(=O)O)Cc1cccnc1)[C@H]1CC[C@H]2[C@@H]3[C@H](O)C[C@@H]4C[C@H](O)CC[C@]4(C)[C@H]3C[C@H](O)[C@]12C [NC20036] , system J774A.1 (Mouse BALB/c monocyte macrophage cell line) cells, measured inhibition at 1 µM is < 20%
